Test system: SH-SY5Y
Measurement Description: Cytotoxicity against human SH-SY5Y cells incubated for 24 hrs by MTS assay
Assay type: functional, cell-based
Active and inactive are the calls of the source. The rule behind the calls is not given here.
Recorded Endpoint: Activity

[
  {
    "Smiles String": "Fc1ccc(CNCCCCCCCCNc2ccnc3cc(Cl)ccc23)c(F)c1",
    "Recorded Endpoint": "Activity",
    "Result": "Active"
  },
  {
    "Smiles String": "FC(F)(F)c1ccc2c(NCCCCCCCCNc3ccccc3Cl)ccnc2c1",
    "Recorded Endpoint": "Activity",
    "Result": "Active"
  },
  {
    "Smiles String": "FC(F)(F)c1ccc2c(NCCCCCCCCNc3ccc(Cl)cc3)ccnc2c1",
    "Recorded Endpoint": "Activity",
    "Result": "Active"
  },
  {
    "Smiles String": "FC(F)(F)c1ccc2c(NCCCCCCCCNc3cccc(Cl)c3)ccnc2c1",
    "Recorded Endpoint": "Activity",
    "Result": "Active"
  }
]

Then there is this compound:
Query: Query (compound): FC(F)(F)c1ccc2c(NCCCCCCCCNc3cc4ccccc4s3)ccnc2c1 ; field requested: Activity
Result: Active

* * *

Target Desc: Acetylcholinesterase (Homo sapiens)
Measurement Description: Mixed type inhibition of recombinant human AChE by DTNB reagent based Ellman's method
Record form. Attribute: pKi. Fill in for each entry.
One number for each entry, as −log10 of the molar value.

[
  {
    "Smiles String": "FC(F)(F)c1ccc2c(NCCCCCCCCNc3cccc(Cl)c3)ccnc2c1",
    "Measured Number": 7.96
  },
  {
    "Smiles String": "FC(F)(F)c1ccc2c(NCCCCCCCCNc3cc4ccccc4s3)ccnc2c1",
    "Measured Number": 7.15
  },
  {
    "Smiles String": "FC(F)(F)c1ccc2c(NCCCCCCCCNc3ccccc3Cl)ccnc2c1",
    "Measured Number": 7.89
  }
]

Moving on to the next compound.
Query: If you can, please state the reported pKi value of Fc1cccc(NCCCCCCCCNc2ccnc3cc(C(F)(F)F)ccc23)c1 .
Result: 8.15

* * *

Target Desc: Acetylcholinesterase (Homo sapiens, UniProt P22303)
Sequence (P22303 whole entry): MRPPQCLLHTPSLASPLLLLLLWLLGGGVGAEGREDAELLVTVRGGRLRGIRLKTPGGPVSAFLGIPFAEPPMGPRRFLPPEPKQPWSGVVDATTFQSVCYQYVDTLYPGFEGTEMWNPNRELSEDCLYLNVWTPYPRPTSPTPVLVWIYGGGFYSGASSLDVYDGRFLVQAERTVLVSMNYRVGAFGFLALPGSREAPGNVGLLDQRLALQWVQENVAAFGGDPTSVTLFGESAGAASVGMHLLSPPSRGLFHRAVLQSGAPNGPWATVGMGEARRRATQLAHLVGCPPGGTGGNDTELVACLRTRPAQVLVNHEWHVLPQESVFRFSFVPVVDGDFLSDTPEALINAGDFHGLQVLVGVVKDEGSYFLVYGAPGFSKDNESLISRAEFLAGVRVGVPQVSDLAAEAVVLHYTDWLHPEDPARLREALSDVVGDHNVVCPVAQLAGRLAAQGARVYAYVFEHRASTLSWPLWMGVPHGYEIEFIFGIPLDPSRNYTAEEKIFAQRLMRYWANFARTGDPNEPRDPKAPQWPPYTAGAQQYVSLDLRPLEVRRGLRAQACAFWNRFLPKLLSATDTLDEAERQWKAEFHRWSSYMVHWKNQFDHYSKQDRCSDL
Measurement Description: Inhibition of recombinant human AChE by DTNB reagent based Ellman's method
pKi: −log10 of the molar value.
Field: class. Source value: pKi. Ranges: low end (below 7), middle (7 to below 8), high end (8 or more)

Observe how each entry below is paired with its result.
[
  {
    "Smiles String": "Fc1ccc(Br)cc1CNCCCCCCCCNc1ccnc2cc(Cl)ccc12",
    "Target Desc": "Acetylcholinesterase (Homo sapiens, UniProt P22303)",
    "Class Name": "middle"
  },
  {
    "Smiles String": "Fc1ccc(F)c(CN(CCCCCCCCNc2ccnc3cc(Cl)ccc23)c2cc(F)ccc2F)c1",
    "Target Desc": "Acetylcholinesterase (Homo sapiens, UniProt P22303)",
    "Class Name": "low end"
  },
  {
    "Smiles String": "Fc1ccc(CNCCCCCCCCNc2ccnc3cc(Cl)ccc23)c(F)c1",
    "Target Desc": "Acetylcholinesterase (Homo sapiens, UniProt P22303)",
    "Class Name": "middle"
  },
  {
    "Smiles String": "Clc1ccc(CNCCCCCCCCNc2ccnc3cc(Cl)ccc23)c(Cl)c1",
    "Target Desc": "Acetylcholinesterase (Homo sapiens, UniProt P22303)",
    "Class Name": "middle"
  },
  {
    "Smiles String": "Fc1cc(C(F)(F)F)ccc1CN(CCCCCCCCNc1ccnc2cc(Cl)ccc12)c1ccc(C(F)(F)F)cc1F",
    "Target Desc": "Acetylcholinesterase (Homo sapiens, UniProt P22303)",
    "Class Name": "low end"
  }
]

Consider the record given below.
Query: State the class of the molecule shown: Fc1cccc(CNCCCCCCCCNc2ccnc3cc(Cl)ccc23)c1
Result: high end

* * *

Target Desc: Cholinesterase (Homo sapiens, UniProt P06276)
Sequence (P06276 whole entry): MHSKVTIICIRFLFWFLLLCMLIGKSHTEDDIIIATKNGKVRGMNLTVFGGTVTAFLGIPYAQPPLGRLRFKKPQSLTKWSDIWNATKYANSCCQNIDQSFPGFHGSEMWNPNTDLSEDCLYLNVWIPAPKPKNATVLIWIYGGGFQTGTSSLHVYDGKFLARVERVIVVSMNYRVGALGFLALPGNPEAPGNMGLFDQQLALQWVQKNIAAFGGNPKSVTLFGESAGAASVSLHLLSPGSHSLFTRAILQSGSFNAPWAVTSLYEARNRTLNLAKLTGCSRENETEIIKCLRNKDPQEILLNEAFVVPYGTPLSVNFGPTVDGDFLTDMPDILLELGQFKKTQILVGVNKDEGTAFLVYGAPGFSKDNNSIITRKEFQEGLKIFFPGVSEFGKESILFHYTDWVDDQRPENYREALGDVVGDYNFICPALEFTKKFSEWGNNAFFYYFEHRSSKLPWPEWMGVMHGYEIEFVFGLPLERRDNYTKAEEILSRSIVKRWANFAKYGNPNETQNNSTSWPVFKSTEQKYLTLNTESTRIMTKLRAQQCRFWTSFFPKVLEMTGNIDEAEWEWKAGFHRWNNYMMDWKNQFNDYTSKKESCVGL
Measurement Description: Mixed type inhibition of recombinant human BChE by DTNB reagent based Ellman's method
Recorded Endpoint: pKi
Answers are plain numbers, as −log10 of the molar value.

[
  {
    "Smiles String": "Fc1cccc(NCCCCCCCCNc2ccnc3cc(C(F)(F)F)ccc23)c1",
    "Target Desc": "Cholinesterase (Homo sapiens, UniProt P06276)",
    "Measured Number": 8.17
  },
  {
    "Smiles String": "O=[N+]([O-])c1ccc(NCCCCCCCCNc2ccnc3cc(C(F)(F)F)ccc23)cc1",
    "Target Desc": "Cholinesterase (Homo sapiens, UniProt P06276)",
    "Measured Number": 7.44
  },
  {
    "Smiles String": "FC(F)(F)c1ccc2c(NCCCCCCCCNC3NCCN3)ccnc2c1",
    "Target Desc": "Cholinesterase (Homo sapiens, UniProt P06276)",
    "Measured Number": 6.72
  },
  {
    "Smiles String": "FC(F)(F)c1ccc2c(NCCCCCCCCNc3cccc(Cl)c3)ccnc2c1",
    "Target Desc": "Cholinesterase (Homo sapiens, UniProt P06276)",
    "Measured Number": 8.23
  }
]

Here's the next entry for you.
Query: Look at this compound and give its reported pKi. FC(F)(F)c1ccc2c(NCCCCCCCCNc3ccccc3)ccnc2c1
Result: 7.68

* * *

Target Desc: Cholinesterase (Homo sapiens)
Measurement Description: Competitive inhibition of recombinant human BChE by DTNB reagent based Ellman's method
Give measured Ki for each item. Keep answers brief.
Give bare numbers, in nM.

Solved entries:
[
  {
    "Smiles String": "FC(F)(F)c1ccc2c(NCCCCCCCCNc3cc4ccccc4s3)ccnc2c1",
    "Ki [nM]": 4.4
  },
  {
    "Smiles String": "FC(F)(F)c1ccc2c(NCCCCCCCCNc3ccncc3)ccnc2c1",
    "Ki [nM]": 1300
  },
  {
    "Smiles String": "Fc1ccc(NCCCCCCCCNc2ccnc3cc(C(F)(F)F)ccc23)cc1",
    "Ki [nM]": 6.1
  }
]

Hello, I would appreciate it if you could give Ki for each entry below.
1. FC(F)(F)c1ccc2c(NCCCCCCCCNc3ccc(Cl)cc3)ccnc2c1
2. FC(F)(F)c1ccc2c(NCCCCCCCCNc3cc4ccccc4o3)ccnc2c1
3. FC(F)(F)c1ccc2c(NCCCCCCCCNc3ccccc3Cl)ccnc2c1
4. CC(C)(C)c1ccc(NCCCCCCCCNc2ccnc3cc(C(F)(F)F)ccc23)cc1

Result:
1: 21; 2: 49; 3: 19; 4: 71

* * *

Please go through the items and note down their Ki.
Target Desc: Acetylcholinesterase (Homo sapiens, UniProt P22303)
Measurement Description: Non-competitive inhibition of recombinant human AChE by DTNB reagent based Ellman's method
Give bare numbers, in nM.

Guide cases for Ki, answers given:
[
  {
    "Smiles String": "O=[N+]([O-])c1ccc(NCCCCCCCCNc2ccnc3cc(C(F)(F)F)ccc23)cc1",
    "Ki [nM]": 140
  },
  {
    "Smiles String": "FC(F)(F)c1ccc2c(NCCCCCCCCNc3ccccc3)ccnc2c1",
    "Ki [nM]": 8
  },
  {
    "Smiles String": "FC(F)(F)c1ccc2c(NCCCCCCCCNC3NCCN3)ccnc2c1",
    "Ki [nM]": 200
  },
  {
    "Smiles String": "CC(C)(C)c1ccc(NCCCCCCCCNc2ccnc3cc(C(F)(F)F)ccc23)cc1",
    "Ki [nM]": 160
  }
]

Query: Fill blank: measured Ki of the molecule Fc1ccc(NCCCCCCCCNc2ccnc3cc(C(F)(F)F)ccc23)cc1 is ____.
Result: 12

* * *

Target Desc: UniProt P06276
Measurement Description: Inhibition of recombinant human BChE by DTNB reagent based Ellman's method
pKi: −log10 of the molar value.
Label Satisfied when pKi >= 7; otherwise Not satisfied.

Solved entries:
[
  {
    "Smiles String": "Fc1ccc(F)c(CN(CCCCCCCCNc2ccnc3cc(Cl)ccc23)c2cc(F)ccc2F)c1",
    "Class Name": "Not satisfied"
  },
  {
    "Smiles String": "Fc1cc(Br)ccc1CNCCCCCCCCNc1ccnc2cc(Cl)ccc12",
    "Class Name": "Not satisfied"
  }
]

Moving on to the next compound.
Query: Check the entry Fc1ccc(CNCCCCCCCCNc2ccnc3cc(Cl)ccc23)c(F)c1 : does pKi equal or exceed 7?
Result: Not satisfied

* * *

Consider the following compounds; for each one, report its Ki.
Target Desc: Acetylcholinesterase (Homo sapiens)
Measurement Description: Inhibition of recombinant human AChE by DTNB reagent based Ellman's method
Give bare numbers, in nM.

Solved entries:
[
  {
    "Smiles String": "Cc1cc(F)c(CNCCCCCCCCNc2ccnc3cc(Cl)ccc23)cc1F",
    "Measured Number": 120
  },
  {
    "Smiles String": "Fc1cc(C(F)(F)F)ccc1CNCCCCCCCCNc1ccnc2cc(Cl)ccc12",
    "Measured Number": 150
  },
  {
    "Smiles String": "Fc1ccc(F)c(CNCCCCCCCCNc2ccnc3cc(Cl)ccc23)c1",
    "Measured Number": 8.2
  },
  {
    "Smiles String": "Fc1ccc(Br)c(CNCCCCCCCCNc2ccnc3cc(Cl)ccc23)c1",
    "Measured Number": 16
  }
]

Let us move to another entry and its Ki.
Query: // returns reported Ki for input Fc1cc(Br)ccc1CNCCCCCCCCNc1ccnc2cc(Cl)ccc12
Result: 110
